Consider the following compounds; for each one, report its Ki.
assay-system: UniProt P25103
Sequence (P25103 whole entry): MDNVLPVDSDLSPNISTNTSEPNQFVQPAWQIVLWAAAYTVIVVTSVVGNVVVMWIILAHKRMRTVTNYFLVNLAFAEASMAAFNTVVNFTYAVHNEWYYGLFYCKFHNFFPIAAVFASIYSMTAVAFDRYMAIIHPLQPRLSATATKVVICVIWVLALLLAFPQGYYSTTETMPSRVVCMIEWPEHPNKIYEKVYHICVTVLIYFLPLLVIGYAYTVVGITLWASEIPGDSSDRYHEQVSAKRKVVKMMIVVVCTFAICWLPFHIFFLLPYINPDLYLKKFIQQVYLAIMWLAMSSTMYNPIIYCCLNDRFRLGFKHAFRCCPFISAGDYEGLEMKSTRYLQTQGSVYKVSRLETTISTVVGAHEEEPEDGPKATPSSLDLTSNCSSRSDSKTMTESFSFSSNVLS
assay-method-text: NK functional potency, FLIPR calcium release in U2OS cells (Substance P as ligand)
Format: cell-based
Set-up: expressed in transfected cells; host or cells: human U2OS cells transiently transduced with recombinant BacMam virus
stated-conditions: BacMam human NK1, average of at least two determinations, read-out: NK1 pKi (functional potency, fpKi) (converted)
Counter-ions that a name gives are not always drawn.

Give one value of Ki per listed compound.
1. Cc1cc(F)ccc1-c1cc([C@@H]2CC[C@](C)(C(N)=O)N2)ncc1N(C)C(=O)C(C)(C)c1cc(C(F)(F)F)cc(C(F)(F)F)c1 [Example 6, hydrochloride]
2. Cc1cc(F)ccc1-c1cc([C@H]2CC[C@](C)(C(N)=O)N2)ncc1N(C)C(=O)C(C)(C)c1cc(C(F)(F)F)cc(C(F)(F)F)c1 [Example 11, bis-hydrochloride]

Output line:
["< 0.17 nM", "0.0794 nM"]

Your task in this section: give Ki for each listed record.
1. Cc1cc(F)ccc1-c1cc([C@H]2CC[C@](C)(C(N)=O)N2)ncc1N(C)C(=O)C(C)(C)c1cc(C(F)(F)F)cc(C(F)(F)F)c1 [Example 2, hydrochloride]
2. Cc1cc(F)ccc1-c1cc([C@H]2CC[C@@](C)(C(N)=O)N2)ncc1N(C)C(=O)C(C)(C)c1cc(C(F)(F)F)cc(C(F)(F)F)c1 [Example 4, hydrochloride]

Output line:
1. < 0.17 nM
2. < 0.17 nM

---

Exercise: state measured Ki for each of the compounds provided.
assay-system: human NK3 receptor (Homo sapiens)
Construct: expressed in transfected cells; host or cells: human U2OS cells transiently transduced with recombinant BacMam virus
Sequence (P29371 whole entry): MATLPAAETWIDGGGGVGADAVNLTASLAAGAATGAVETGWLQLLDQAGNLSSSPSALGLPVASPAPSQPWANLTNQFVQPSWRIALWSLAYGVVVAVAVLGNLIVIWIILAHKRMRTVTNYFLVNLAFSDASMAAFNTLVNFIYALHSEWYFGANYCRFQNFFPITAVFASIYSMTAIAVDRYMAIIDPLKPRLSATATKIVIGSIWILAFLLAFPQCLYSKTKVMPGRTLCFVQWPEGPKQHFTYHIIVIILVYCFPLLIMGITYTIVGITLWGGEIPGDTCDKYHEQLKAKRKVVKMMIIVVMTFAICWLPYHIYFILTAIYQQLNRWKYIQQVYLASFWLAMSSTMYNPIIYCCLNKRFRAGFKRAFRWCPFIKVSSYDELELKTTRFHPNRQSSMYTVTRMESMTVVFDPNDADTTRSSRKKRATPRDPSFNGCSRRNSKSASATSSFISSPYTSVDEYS
assay-method-text: NK functional potency, FLIPR calcium release in U2OS cells (NKB as ligand)
Assay type: cell-based
stated-conditions: BacMam human NK3, average of at least two determinations, read-out: NK3 pKi (functional potency, fpKi) (converted)
Counter-ions that a name gives are not always drawn.
One number for each entry, in nM.

| compound | reading |
| --- | --- |
| Cc1cc(F)ccc1-c1cc([C@H]2CC[C@@](C)(C(N)=O)N2)ncc1N(C)C(=O)C(C)(C)c1cc(C(F)(F)F)cc(C(F)(F)F)c1 [Example 4, hydrochloride] | 63.1 |
| Cc1cc(F)ccc1-c1cc([C@H]2CC[C@](C)(C(N)=O)N2)ncc1N(C)C(=O)C(C)(C)c1cc(C(F)(F)F)cc(C(F)(F)F)c1 [Example 11, bis-hydrochloride] | 31.6 |

Give Ki for all compounds that follow.
1. Cc1cc(F)ccc1-c1cc([C@H]2CC[C@](C)(C(N)=O)N2)ncc1N(C)C(=O)C(C)(C)c1cc(C(F)(F)F)cc(C(F)(F)F)c1 [Example 2, hydrochloride]
2. Cc1cc(F)ccc1-c1cc([C@@H]2CC[C@](C)(C(N)=O)N2)ncc1N(C)C(=O)C(C)(C)c1cc(C(F)(F)F)cc(C(F)(F)F)c1 [Example 6, hydrochloride]

Output line:
[79.4, 158]
